assayed-system: DRB1*0901 (DR9) (Homo sapiens, UniProt P01903+P01911, A100R/A103E/D57H/D86V/F55Y/F60I/F76Y/I96F/K127E/L162R/M171V/P40D/Q125H/Q99R/R33Q/R42F/S133A/S66N/T210M/V115G/W38K/Y107V/Y59G/Y89S)
Construct: endogenous in cells; host or cells: HID
assay-details: biochemical
Assay type: binding
pIC50: −log10 of the molar value. No end group written: not given here.
experimental-readout: pIC50

// lookup pIC50 for PDSIQDSLKESRKLN [Peptide 35.0171]
< 4.70

* * *

assayed-system: DRB1*0901 (DR9) (Homo sapiens, UniProt P01903+P01911, A100R/A103E/D57H/D86V/F55Y/F60I/F76Y/I96F/K127E/L162R/M171V/P40D/Q125H/Q99R/R33Q/R42F/S133A/S66N/T210M/V115G/W38K/Y107V/Y59G/Y89S)
Construct: endogenous in cells; host or cells: HID
assay-details: biochemical
Assay type: binding
DR9 binding data reference

Examples with their reported DR9 binding data follow.
- construct-sequence: "LATSVLAGL"
  DR9 binding data: 2.6000
- construct-sequence: "LIFFDLFLV"
  DR9 binding data: -0.0003
- construct-sequence: "VSTVLLGGV"
  DR9 binding data: -0.0005

What value of DR9 binding data has been recorded for this entry: VVPGAATPY
0.0200

Looking for the measured DR9 binding data of LAILSVSSF , can you help?
0.1100

Name the reported DR9 binding data value associated with the sequence YQNNIVDEI
-0.0005

Quick one: DR9 binding data of FMKAVCVEV ?
0.0820

Reported DR9 binding data, sequence LALFFIIFN : ____
-0.0018

Request the reported DR9 binding data associated with VNHAVPLAM
4.000

// DR9 binding data lookup, key: LTMSNVKNV
0.0710

I would be grateful if you could share the reported DR9 binding data for LGNVSTVLL .
0.5300

* * *

assayed-system: DRB1*0802 (DR8w2) (Homo sapiens, UniProt P01903+P01911, A100R/A103L/A169T/F76Y/H45Y/I96F/K41T/L162R/M171V/P40S/Q125H/Q178H/Q39Y/Q99D/R218S/R42G/S66Y/V115G/W38E)
Construct: endogenous in cells; host or cells: OLL
assay-details: biochemical
Format: binding
Recorded DR8w2 binding data values for a group of sequences are listed next.
Field format: numeric only.

- construct-sequence: "LHEGCTSEL"
  DR8w2 binding data: -0.0003

Could you tell me which DR8w2 binding data is on file for YLLMDCSGS ?
0.0007

Look at this sequence and give its reported DR8w2 binding data. VHDLISDMI
0.0096

# lookup: DR8w2 binding data of LGGVGLVLY
-0.0002

Tell me the measured DR8w2 binding data of LTDGIPDSI , please.
-0.0003

Given the sequence LTMSNVKNV , what is its reported DR8w2 binding data?
0.0110

Quick check: DR8w2 binding data of VEKTASCGV ?
0.0005

* * *

assayed-system: DRB1*0301 (DR3) (Homo sapiens, UniProt P01903+P01911, A100K/A102G/A103R/A169T/F55Y/I96L/K41T/L162R/M171V/P40S/Q125H/Q178H/Q39Y/R42S/S66N/T106N/T262R/W38E/Y61H)
Construct: endogenous in cells; host or cells: MAT
Sequence (P01911 30-266 W38E/Q39Y/P40S/K41T/R42S/F55Y/Y61H/S66N/I96L/A100K/A102G/A103R/T106N/Q125H/Q178H): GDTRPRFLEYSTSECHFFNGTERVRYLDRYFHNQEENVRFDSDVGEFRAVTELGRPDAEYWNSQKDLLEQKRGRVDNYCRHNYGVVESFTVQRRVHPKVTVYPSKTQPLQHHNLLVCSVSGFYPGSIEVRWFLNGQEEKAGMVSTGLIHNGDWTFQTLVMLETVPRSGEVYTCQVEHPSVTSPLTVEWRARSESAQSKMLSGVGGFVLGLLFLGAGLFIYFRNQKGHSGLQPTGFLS
Sequence (P01903 26-254 partner): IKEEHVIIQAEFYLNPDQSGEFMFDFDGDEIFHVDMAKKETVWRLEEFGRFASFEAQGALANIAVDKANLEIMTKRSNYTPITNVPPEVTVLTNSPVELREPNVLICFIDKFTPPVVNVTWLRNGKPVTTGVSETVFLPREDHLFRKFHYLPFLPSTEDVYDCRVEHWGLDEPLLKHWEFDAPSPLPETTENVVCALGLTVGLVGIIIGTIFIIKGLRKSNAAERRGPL
assay-details: HLA class II peptide binding assay (pH 4.5)
run-parameters: DR3a motif peptides; unit not given; exemplary 15-mer containing the core sequence
Answer False if DR3 binding information is under 0.008, and True if it is 0.008 or more.

Dear colleague, could you confirm whether FDGDNEILQ has DR3 binding information at or above 0.008?
True

Given the entry LSTEWSPCS , answer whether its DR3 binding information meets or surpasses 0.008.
False
